biological target: CK1ε (Homo sapiens (Human)); test: CK1ε kinase assay (Caliper LabChip, fluoresceinated peptide substrate); type: biochemical; details: 200 pM CK1ε, 50 μM ATP, 1.5 μM peptide substrate, 22 hours room temperature
Sequence (P49674 whole entry): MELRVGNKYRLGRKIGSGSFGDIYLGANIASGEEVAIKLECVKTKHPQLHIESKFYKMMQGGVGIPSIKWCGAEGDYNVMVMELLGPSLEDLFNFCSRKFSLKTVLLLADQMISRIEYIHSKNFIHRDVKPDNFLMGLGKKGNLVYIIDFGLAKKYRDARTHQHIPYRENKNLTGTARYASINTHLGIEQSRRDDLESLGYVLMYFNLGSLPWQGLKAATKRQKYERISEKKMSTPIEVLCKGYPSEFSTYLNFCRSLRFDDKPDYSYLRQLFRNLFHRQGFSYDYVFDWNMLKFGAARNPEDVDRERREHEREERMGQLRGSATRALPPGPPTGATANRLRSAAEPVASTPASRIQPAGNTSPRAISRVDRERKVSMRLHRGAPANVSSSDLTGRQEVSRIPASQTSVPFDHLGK
Measured property: IC50 (µM)
Give the value in µM but do not write µM after it.

For `Cn1cc(-c2ccc3nc(NC(=O)C4CCOCC4)cn3n2)c(-c2ccc(F)cc2)n1` , what is its reported IC50?
0.018

// same read-out, input: `COc1ccncc1C(=O)Nc1cn2nc(-c3cn(C)nc3-c3ccc(F)cc3)ccc2n1`
0.0385

Now consider `Cn1cc(-c2ccc3nc(NC(=O)c4ccnc(F)c4)cn3n2)c(-c2ccc(F)cc2)n1` and answer again.
0.014

Next compound up: `Cn1nc(-c2ccc(F)cc2)c(-c2ccc3nc(NC(=O)c4ccncc4)cn3n2)c1C1CCNCC1`
0.0033

What about this compound? `Cn1cc(-c2ccc3nc(NC(=O)c4ccccc4)cn3n2)c(-c2ccc(F)cc2)n1`
0.0056

Now this one: `Cn1cc(-c2ccc3nc(NC(=O)c4cc(Cl)ccc4F)cn3n2)c(-c2ccc(F)cc2)n1`
0.0199

Queued: `Cn1cc(-c2ccc3nc(NC(=O)c4ccnc(C(C)(C)C)c4)cn3n2)c(-c2ccc(F)cc2)n1`
0.0999

Please do the same for `Cn1cc(-c2ccc3nc(NC(=O)c4ccnc(N5CCOCC5)c4)cn3n2)c(-c2ccc(F)cc2)n1` as well.
0.0048

Request: `Cn1cc(-c2ccc3nc(NC(=O)c4ccc(Cl)cc4F)cn3n2)c(-c2ccc(F)cc2)n1`
0.0162

Please do the same for `Cn1cc(-c2ccc3nc(NC(=O)c4ccc(C#N)c(F)c4)cn3n2)c(-c2ccc(F)cc2)n1` as well.
0.0234

Another compound to check: `Cc1nc(-c2ccccn2)sc1C(=O)Nc1cn2nc(-c3cn(C4CC4)nc3-c3ccc(F)cc3)ccc2n1`
0.0288

Same lookup for `O=C(Nc1cn2nc(-c3cn(C4CC4)nc3-c3ccc(F)cc3)ccc2n1)c1cc(F)nc(F)c1` , please.
0.0465

Now give it for `Cn1cc(-c2ccc3nc(NC(=O)c4ccccc4)c(Cl)n3n2)c(-c2ccc(F)cc2)n1` too.
0.153

Param item: `Cn1nc(-c2ccc(F)cc2)c(-c2ccc3nc(NC(=O)c4ccnc(N5CCOCC5)c4)cn3n2)c1C1CCN(CC(N)=O)CC1`
0.0006

Entry to check: `Cn1cc(-c2ccc3nc(NC(=O)c4ccncc4)c(Br)n3n2)c(-c2ccc(F)cc2)n1`
0.102

What about `Cn1cc(-c2ccc3nc(NC(=O)c4ccc(CN5CCCC5)cc4)cn3n2)c(-c2ccc(F)cc2)n1` ?
0.0079

Here is the next compound: `Cn1cc(-c2ccc3nc(NC(=O)c4csc(Br)n4)cn3n2)c(-c2ccc(F)cc2)n1`
0.0229
